Target: T1, TNFR1 (Homo sapiens, UniProt P19438)
T1 chain: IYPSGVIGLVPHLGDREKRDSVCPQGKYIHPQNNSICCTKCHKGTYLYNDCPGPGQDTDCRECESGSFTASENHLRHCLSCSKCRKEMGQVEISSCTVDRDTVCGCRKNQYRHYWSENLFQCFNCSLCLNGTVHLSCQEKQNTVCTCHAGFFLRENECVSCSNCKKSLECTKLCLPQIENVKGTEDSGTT
Assay: yeast display SC50
READOUT KIND: apparent Kd (screen) (nM)
Field: numeric (nM). Do not append units.

Reported apparent Kd (screen) for K52M (designed binder) SMEEEVEKAAKEYEKKKKEAIEKHLEKLKAKDKEAAERFLKELEEAAKEYAMDEAKTMSEEEAKRRAKKYKEKVLLSELSEEEQKEIKEAEEKLVRTILKYVEEAAK was 0.446

The measured apparent Kd (screen) associated with L25G (designed binder) SMEEEVEKAAKEYEKKKKEAIEKHGEKLKAKDKEAAERFLKELEEAAKEYAKDEAKTMSEEEAKRRAKKYKEKVLLSELSEEEQKEIKEAEEKLVRTILKYVEEAAK reads 1.05
